We begin with a simple list: items and their reported abundance fitness.
B1: Retinoic acid receptor beta, residues 85 to 161; numbered along this chain, P10826 (parent)
chain: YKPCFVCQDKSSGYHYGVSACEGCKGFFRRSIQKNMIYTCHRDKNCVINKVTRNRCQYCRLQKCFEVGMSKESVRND

# Variants of: B1
# Run Description: abundance fitness (aPCA) (normalised: wild type 0, dead -1); higher = more abundant; growth selection in yeast, the domain comes from the species named
# Condition Label: Homo sapiens
Metric: abundance fitness

{"columns": ["Variant Label", "Metric", "Recorded Number"],
 "data": [
  ["R53Q", "abundance fitness", 0.19],
  ["I32S", "abundance fitness", -0.487],
  ["G17L", "abundance fitness", -0.368],
  ["D43P", "abundance fitness", -0.471],
  ["F5T", "abundance fitness", -0.048],
  ["Y14I", "abundance fitness", 0.054],
  ["Y38E", "abundance fitness", -0.472],
  ["S12M", "abundance fitness", -0.102],
  ["S19L", "abundance fitness", -0.046],
  ["K2L", "abundance fitness", -0.162],
  ["C46K", "abundance fitness", -1],
  ["R55P", "abundance fitness", 0.218],
  ["N35R", "abundance fitness", -0.018],
  ["V51P", "abundance fitness", -0.218],
  ["N49F", "abundance fitness", -0.368],
  ["S12K", "abundance fitness", -0.207],
  ["E22N", "abundance fitness", -0.317],
  ["F28W", "abundance fitness", -0.123],
  ["I48C", "abundance fitness", -0.72],
  ["Y58E", "abundance fitness", -0.214],
  ["Y16M", "abundance fitness", -0.15],
  ["C56Y", "abundance fitness", -0.567]
]}

Ref: the Human Domainome abundance scans (Beltran et al. 2025)
